Data provenance is patent US7935722B2.

# testedOn: human androgen receptor (AR) (Homo sapiens, UniProt P10275)
# Construct: expressed in transfected cells; host or cells: mouse myoblast C2C12 cells, transiently co-transfected
# Sequence (P10275 1-920): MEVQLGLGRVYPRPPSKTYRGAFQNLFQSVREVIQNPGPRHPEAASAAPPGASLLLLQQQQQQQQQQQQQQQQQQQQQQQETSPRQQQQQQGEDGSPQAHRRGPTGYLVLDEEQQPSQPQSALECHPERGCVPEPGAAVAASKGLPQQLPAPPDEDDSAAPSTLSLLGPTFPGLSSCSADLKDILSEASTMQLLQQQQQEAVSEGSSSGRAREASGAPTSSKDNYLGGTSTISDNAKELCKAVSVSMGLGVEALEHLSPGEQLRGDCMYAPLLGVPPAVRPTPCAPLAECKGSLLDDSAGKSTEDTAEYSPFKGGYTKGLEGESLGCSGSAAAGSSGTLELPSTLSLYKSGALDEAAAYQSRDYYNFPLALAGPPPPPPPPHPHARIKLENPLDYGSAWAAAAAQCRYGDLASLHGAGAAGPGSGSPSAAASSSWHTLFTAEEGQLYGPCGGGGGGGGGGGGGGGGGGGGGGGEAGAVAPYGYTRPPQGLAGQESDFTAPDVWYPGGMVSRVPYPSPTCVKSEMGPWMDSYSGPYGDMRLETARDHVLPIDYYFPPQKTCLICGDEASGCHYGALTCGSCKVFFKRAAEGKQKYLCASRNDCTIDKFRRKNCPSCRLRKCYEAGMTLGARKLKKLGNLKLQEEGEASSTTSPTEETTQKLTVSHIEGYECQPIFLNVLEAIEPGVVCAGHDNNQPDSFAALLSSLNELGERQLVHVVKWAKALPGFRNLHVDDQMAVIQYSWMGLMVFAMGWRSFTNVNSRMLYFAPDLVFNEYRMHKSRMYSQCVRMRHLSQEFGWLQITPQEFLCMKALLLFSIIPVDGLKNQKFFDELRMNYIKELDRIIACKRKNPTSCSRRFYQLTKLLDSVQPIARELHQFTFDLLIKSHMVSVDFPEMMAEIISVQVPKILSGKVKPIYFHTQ
# assayInfo: C2C12 AR/ARE reporter assay
# Type: cell-based
Binary label based on EC50 with cut-off 40 nM: below gives true, not below gives false.

# strict comparison: is reported EC50 < 40 nM? input = COc1ccc2c(c1)c1c(n2Cc2ccc(Cl)cc2)CCC(NC(=O)C(C)C)C1 (stereo not drawn) false

# strict comparison: is reported EC50 < 40 nM? input = COC(=O)NC1CCc2c(c3cc(C#N)ccc3n2Cc2cccc(F)c2)C1 (stereo not drawn) true

# strict comparison: is reported EC50 < 40 nM? input = CO/N=C/c1ccc2c(c1)c1c(n2Cc2csc(C)n2)CC[C@@H](NC(=O)C(C)C)C1 true

# strict comparison: is reported EC50 < 40 nM? input = CC(C)C(=O)N[C@@H]1CCc2c(c3cc(-c4ccno4)ccc3n2Cc2cccc(F)c2)C1 true

# strict comparison: is reported EC50 < 40 nM? input = CC(C)C(=O)NC1CCc2c(c3cc(Br)ccc3n2Cc2ccc(F)cc2)C1 (stereo not drawn) true

# strict comparison: is reported EC50 < 40 nM? input = CO/N=C/c1ccc2c(c1)c1c(n2Cc2cccc(F)c2)CC[C@@H](NC(=O)C2CC2)C1 true

# strict comparison: is reported EC50 < 40 nM? input = COc1ccc2c(c1)c1c(n2Cc2ccccc2)CCC(NC(=O)C(C)C)C1 (stereo not drawn) true

# strict comparison: is reported EC50 < 40 nM? input = CC(C)C(=O)NC1CCc2c(c3cc(OC(F)(F)F)ccc3n2Cc2cccc(F)n2)C1 (stereo not drawn) true

# strict comparison: is reported EC50 < 40 nM? input = CC(C)C(=O)NC1CCc2c(c3cc(C#N)ccc3n2Cc2cscn2)C1 (stereo not drawn) false

# strict comparison: is reported EC50 < 40 nM? input = CC(C)C(=O)NC1CCc2c(c3c(F)c(C#N)ccc3n2Cc2cccc(F)c2)C1 (stereo not drawn) true

# strict comparison: is reported EC50 < 40 nM? input = COc1ccccc1Cn1c2c(c3cc(Cl)ccc31)CC(NC(=O)C(C)C)CC2 (stereo not drawn) false

# strict comparison: is reported EC50 < 40 nM? input = N#Cc1ccc2c(c1)c1c(n2Cc2ccccn2)CC[C@@H](NC(=O)C2CC2)C1 true

# strict comparison: is reported EC50 < 40 nM? input = CC(C)C(=O)NC1CCc2c(c3cc(C#N)ccc3n2Cc2ccccc2N)C1 (stereo not drawn) true

# strict comparison: is reported EC50 < 40 nM? input = CC(C)C(=O)N[C@H]1CCc2c(c3cc(C#N)ccc3n2Cc2ccccc2N)C1 (single isomer, unassigned) false

# strict comparison: is reported EC50 < 40 nM? input = CCC(=O)NC1CCc2c(c3cc(Br)ccc3n2Cc2cccc(F)c2)C1 (stereo not drawn) true

# strict comparison: is reported EC50 < 40 nM? input = CC(C)C(=O)NC1CCc2c(c3cc(C#N)ccc3n2Cc2ccccc2OC(F)F)C1 (stereo not drawn) true

# strict comparison: is reported EC50 < 40 nM? input = Cc1nc(Cn2c3c(c4cc(C#N)ccc42)C[C@@H](NC(=O)C(C)C)CC3)cs1 false

# strict comparison: is reported EC50 < 40 nM? input = CC(C)C(=O)NC1CCc2c(c3cc4c(cc3n2Cc2cccc(F)c2)OC(F)(F)O4)C1 (stereo not drawn) true

# strict comparison: is reported EC50 < 40 nM? input = CC(C)C(=O)NC1CCc2c(c3cc(C#N)ccc3n2Cc2ncccc2F)C1 (stereo not drawn) false

# strict comparison: is reported EC50 < 40 nM? input = CC(=O)c1ccc2c(c1)c1c(n2Cc2cccc(F)c2)CC[C@@H](NC(=O)C(C)C)C1 true

# strict comparison: is reported EC50 < 40 nM? input = CC(C)C(=O)NC1CCc2c(c3c(Cl)c(C#N)ccc3n2Cc2cccc(F)c2)C1 (stereo not drawn) true

# strict comparison: is reported EC50 < 40 nM? input = Cc1ccc2c(c1)c1c(n2Cc2cccc(Cl)c2)CCC(NC(=O)C(C)C)C1 (stereo not drawn) false

# strict comparison: is reported EC50 < 40 nM? input = CC(C)C(=O)NC1CCc2c(c3cc(OCC4CC4)ccc3n2Cc2cccc(F)c2)C1 (stereo not drawn) true

# strict comparison: is reported EC50 < 40 nM? input = CC(C)C(=O)NC1CCc2c(c3cc(C#N)ccc3n2Cc2ccccc2[N+](=O)[O-])C1 (stereo not drawn) false

# strict comparison: is reported EC50 < 40 nM? input = CCCOc1ccc2c(c1)c1c(n2Cc2cccc(F)c2)CCC(NC(=O)C(C)C)C1 (stereo not drawn) true

# strict comparison: is reported EC50 < 40 nM? input = CC(C)C(=O)NC1CCc2c(c3cc(Cl)ccc3n2Cc2cccc(O)c2)C1 (stereo not drawn) false

# strict comparison: is reported EC50 < 40 nM? input = N#Cc1ccc2c(c1)c1c(n2Cc2cccc(F)c2)CCC(NS(=O)(=O)C2CC2)C1 (stereo not drawn) false

# strict comparison: is reported EC50 < 40 nM? input = CC(C)C(=O)NC1CCc2c(c3cc(C#N)ccc3n2Cc2cccs2)C1 (stereo not drawn) true

# strict comparison: is reported EC50 < 40 nM? input = CC(C)C(=O)N[C@@H]1CCc2c(c3cc(C=O)ccc3n2Cc2cccc(F)c2)C1 true

# strict comparison: is reported EC50 < 40 nM? input = O=Cc1ccc2c(c1)c1c(n2Cc2ccccn2)CCC(NC(=O)C2CC2)C1 (stereo not drawn) false

# strict comparison: is reported EC50 < 40 nM? input = COC(=O)c1ccc2c(c1)c1c(n2Cc2cccc(F)c2)CC[C@@H](NC(=O)C(C)C)C1 true

# strict comparison: is reported EC50 < 40 nM? input = CC(C)C(=O)NC1CCc2c(c3cc(C#N)ccc3n2Cc2ccccc2NS(C)(=O)=O)C1 (stereo not drawn) true

###

# testedOn: human AR (androgen receptor) (Homo sapiens, UniProt P10275)
# Construct: expressed in transfected cells; host or cells: 293 cells (293-AR lysate)
# assayInfo: Steroid hormone nuclear receptor binding assay, AR binding
Binary label based on Ki with cut-off 6 nM: below gives class 1, not below gives class 0.

# strict comparison: is reported Ki < 6 nM? input = COC(=O)NC1CCc2c(c3cc(C#N)ccc3n2Cc2cccc(F)c2)C1 (centres unmarked) class 1

# strict comparison: is reported Ki < 6 nM? input = CC(C)C(=O)NC1CCc2c(c3cc4c(cc3n2Cc2cccc(F)c2)OC(F)(F)O4)C1 (centres unmarked) class 0

# strict comparison: is reported Ki < 6 nM? input = CCC(=O)NC1CCc2c(c3cc(Br)ccc3n2Cc2cccc(F)c2)C1 (centres unmarked) class 1

# strict comparison: is reported Ki < 6 nM? input = CC(C)C(=O)NC1CCc2c(c3cc(OC(F)(F)F)ccc3n2Cc2cccc(F)c2)C1 (centres unmarked) class 1

# strict comparison: is reported Ki < 6 nM? input = CC(C)C(=O)N[C@@H]1CCc2c(c3cc(-c4cnc(N)s4)ccc3n2Cc2cccc(F)c2)C1 class 0

# strict comparison: is reported Ki < 6 nM? input = COc1ccc2c(c1)c1c(n2Cc2ccc(Cl)cc2)CCC(NC(=O)C(C)C)C1 (centres unmarked) class 0

# strict comparison: is reported Ki < 6 nM? input = CO/N=C/c1ccc2c(c1)c1c(n2Cc2cccc(F)c2)CCC(NC(=O)C2CC2)C1 (centres unmarked) class 1

# strict comparison: is reported Ki < 6 nM? input = COc1cccc(Cn2c3c(c4cc(OC)ccc42)CC(NC(=O)C(C)C)CC3)c1 (centres unmarked) class 0
